System: CASOB
Assay: Preemergence herbicidal evaluation
Format: in vivo
Parameters: scale not given here
Details: 0.0620-0.0630 kg/ha
assay-metric: herbicidal effect rating

1) Cc1nsc2ccc(N3C(=O)C4=C(CCCC4)C3=O)cc12	0.0
2) O=C1C2=C(CCCC2)C(=O)N1c1ccc2sncc2c1	0.0
3) Cn1c(C(F)(F)F)cc(=O)n(-c2ccc3snc(-c4ccccc4)c3c2)c1=O	7.0
4) CN(C)C(=O)c1nsc2ccc(-n3c(=O)cc(C(F)(F)F)n(C)c3=O)cc12	7.0
5) O=C1C2=C(CCCC2)C(=O)N1c1ccc2snc(-c3ccccc3)c2c1	0.0

---

Tested on: ECHORC Watergrass (Calif.)
Assay: Preemergence weed control, flooded paddy (Table III)
Format: in vivo, Echinochloa oryzoides
Design: scale not given here
Details: 0.0313 kg/ha
assay-metric: herbicidal effect rating

1) COC(=O)COc1cc(C)ccc1-c1nsc2ccc(-n3c(=O)cc(C(F)(F)F)n(C)c3=O)cc12 [Compound 8]	9.0
2) COc1cc(C)ccc1-c1nsc2ccc(-n3c(=O)cc(C(F)(F)F)n(C)c3=O)cc12 [Compound 7]	9.0
3) COC(=O)COc1cc(C)c(C)cc1-c1nsc2ccc(-n3c(=O)cc(C(F)(F)F)n(C)c3=O)cc12 [Compound 12]	9.0

Values compiled from patent US6156700A.
